- Target or system: human plasma kallikrein (PK) (human, UniProt P03952 20-638); further: test concentration or dose not given here
- Sequence (P03952 20-638 limits assumed): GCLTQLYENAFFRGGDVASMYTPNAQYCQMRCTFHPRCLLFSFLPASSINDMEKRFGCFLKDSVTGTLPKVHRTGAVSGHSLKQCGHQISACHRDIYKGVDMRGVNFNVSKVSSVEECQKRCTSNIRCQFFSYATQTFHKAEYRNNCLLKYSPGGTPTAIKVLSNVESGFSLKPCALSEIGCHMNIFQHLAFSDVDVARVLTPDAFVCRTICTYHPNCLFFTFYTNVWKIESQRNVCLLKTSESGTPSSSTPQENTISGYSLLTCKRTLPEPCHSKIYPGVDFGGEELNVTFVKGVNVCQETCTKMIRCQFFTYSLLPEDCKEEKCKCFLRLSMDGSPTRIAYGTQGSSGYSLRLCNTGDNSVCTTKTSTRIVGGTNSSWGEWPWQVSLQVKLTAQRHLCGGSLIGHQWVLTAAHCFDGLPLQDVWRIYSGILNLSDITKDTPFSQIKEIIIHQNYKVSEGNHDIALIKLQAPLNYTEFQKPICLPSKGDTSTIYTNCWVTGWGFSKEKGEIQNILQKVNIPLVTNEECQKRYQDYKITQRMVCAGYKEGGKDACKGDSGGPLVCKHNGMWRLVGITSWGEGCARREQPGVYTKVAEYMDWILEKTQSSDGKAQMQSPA
- Assay procedure: cell-based or functional assay
Measured endpoint: % Inhibition (%)

[[record]]
binder = "AATG9 (other, human, mature; also called rAATG9) HHHHHHEDPQGDAAQKTDTSHHDQDHPTFNKITPNLAEFAFSLYRQLAHQSNSTNIFFSPVSIATAFAMLSLGTKADTHDEILEGLNFNLTEIPEAQIHEGFQELLRTLNQPDSQLQLTTGNGLFLSEGLKLVDKFLEDVKKLYHSEAFTVNFGDTEEAKKQINDYVEKGTQGKIVDLVKELDRDTVFALVNYIFFKGKWERPFEVKDTEEEDFHVDQVTTVKVPMMKRLGMFNIQHCKKLSSWVLLMKYLGNATAIFFLPDEGKLQHLENELTHDIITKFLENEDRRSASLHLPKLSITGTYDLKSVLGQLGITKVFSNGADLSGVTEEAPLKLSKAVHKAVLTIDEKGTEAAGAMFLETVDYAIPPEVKFNKPFVFLMIEQNTKSPLFMGKVVNPTQK"
test_value = 0

[[record]]
binder = "AATE8 (other, human, mature; also called rAATE8) HHHHHHEDPQGDAAQKTDTSHHDQDHPTFNKITPNLAEFAFSLYRQLAHQSNSTNIFFSPVSIATAFAMLSLGTKADTHDEILEGLNFNLTEIPEAQIHEGFQELLRTLNQPDSQLQLTTGNGLFLSEGLKLVDKFLEDVKKLYHSEAFTVNFGDTEEAKKQINDYVEKGTQGKIVDLVKELDRDTVFALVNYIFFKGKWERPFEVKDTEEEDFHVDQVTTVKVPMMKRLGMFNIQHCKKLSSWVLLMKYLGNATAIFFLPDEGKLQHLENELTHDIITKFLENEDRRSASLHLPKLSITGTYDLKSVLGQLGITKVFSNGADLSGVTEEAPLKLSKAVHKAVLTIDEKGTEAAGAMFLEALQRAIPPEVKFNKPFVFLMIEQNTKSPLFMGKVVNPTQK"
test_value = 100

